Source: patent US20260137696A1

biological target: Galectin-3 (Homo sapiens, UniProt P17931)
Sequence (P17931 whole entry): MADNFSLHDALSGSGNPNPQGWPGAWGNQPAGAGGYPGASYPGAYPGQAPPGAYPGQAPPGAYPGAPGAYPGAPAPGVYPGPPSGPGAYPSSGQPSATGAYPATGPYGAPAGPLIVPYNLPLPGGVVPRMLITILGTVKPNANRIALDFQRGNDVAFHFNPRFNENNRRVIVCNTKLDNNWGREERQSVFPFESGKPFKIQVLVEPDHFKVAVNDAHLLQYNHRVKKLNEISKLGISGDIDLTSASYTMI
Overview of recorded Kd for various compounds

given_smiles | Kd / µM
C[C@H]1COc2c(N3CCN(C)CC3)c(F)cc3c(=O)c(C(=O)NNc4ccc(N)cc4)cn1c23 | 18
C[C@H]1COc2c(N3CCN(C)CC3)c(F)cc3c(=O)c(C(=O)NNc4cccc(N)c4)cn1c23 | 30
